assay details: Formation of 1,5-cz-[M(Lig)] from Lig and M^III ions (metal dependent click-zip) (Charts 4, 5)
Assay type: physicochemical
assay conditions: 1 hour at 80° C.; MOPS/NaOH buffer pH 7.0
reported property: conversion to 1,5-cz-[Ln(Lig)] with hydrolysed group in the side chain, Y^III

Guide cases for conversion to 1,5-cz-[Ln(Lig)] with hydrolysed group in the side chain, Y^III, answers given:
structure=C#Cc1cccc(CN2CCN(CC(=O)O)CCN(Cc3cc(C(=O)OC(C)(C)C)cc(CN=[N+]=[N-])n3)CCN(CC(=O)O)CC2)n1 assay_result=17%
structure=C#Cc1cccc(CN2CCN(CC(=O)O)CCN(Cc3cc(C(=O)OC)cc(CN=[N+]=[N-])n3)CCN(CC(=O)O)CC2)n1 assay_result=12%
structure=C#Cc1cccc(CN2CCN(CC(=O)O)CCN(Cc3cc(C(=O)OC(C)C)cc(CN=[N+]=[N-])n3)CCN(CC(=O)O)CC2)n1 assay_result=3%

Prompt: Returns the measured conversion to 1,5-cz-[Ln(Lig)] with hydrolysed group in the side chain, Y^III for the input compound. Input: CC(C)(C#Cc1cccc(CN2CCN(CC(=O)O)CCN(Cc3cccc(CN=[N+]=[N-])n3)CCN(CC(=O)O)CC2)n1)NC(=O)OC(C)(C)C
Completion: 1%

Cited source for all entries: patent US20250147039A1
